Hello, the source for this data is PubChem BioAssay AID179, in case you need it.

# Tested on: CEM cells HIV-1 protection, formazan growth assay
# procedure.text: NCI AIDS Antiviral Assay
# condition: measured here: growth of uninfected CEM cells
experimental.endpoint: pIC50
By convention, pIC50 is the negative base-10 log of a molar concentration.

These solved cases illustrate the format of a correct answer.
> print(dat)
                                   molecule  numeric.value
1         Cn1cc(C(=O)C[n+]2ccccc2)c2ccccc21           4.09
2      O=S(=O)(c1ccccc1)C1(Sc2ccccc2)CC=CC1           4.29
3        Cc1cccc2c(=O)c3c(O)cc(O)cc3[nH]c12           4.84
4   NCCn1cnc2nc(NC(=O)c3ccccc3)[nH]c(=O)c21           4.04
5  CC(C)[Si](O[C@@H]1CCC[C@@]23O[C@@H]2CC2C(=O)c4c(O)cccc4C(=O)[C@@]2(O)[C@@H]13)(C(C)C)C(C)C (stereo partly specified)           4.85
6  Cc1[nH]c2ccccc2c1C1Cc2ccccc2N1C(=O)/C=C\C(=O)O (stereo unspecified)           4.38
7  CC(=O)Nc1cc2ccc(C)nc2c2nc(C)ccc12.CC(=O)Nc1cc2ccc(C)nc2c2nc(C)ccc12.O=C1OC(C(O)C[O-])C(O)=C1O.[Cu+]           5.68
8        CC(=O)ON1C(=O)c2cccc3cccc(c23)C1=O           4.73

INPUT: Report pIC50, nothing else, for this molecule: Cc1nc(N)sc1C(=O)/C=C\c1ccc2c(c1)OCO2
OUTPUT: 3.36

INPUT: Provide pIC50 value for the following molecule: O=c1c(Cl)cc2nc3ccccc3sc-2c1Cl
OUTPUT: 5.05

INPUT: Consider the molecule CN1C(c2ccccc2)=C(C#N)C(=O)CC(c2cccs2)N1C (stereo unspecified) . State its measured pIC50.
OUTPUT: 3.72

INPUT: Could you please provide reported pIC50 for Cc1ccc([N+](=O)[O-])cc1N=NC(=O)NNc1cc([N+](=O)[O-])ccc1C ? Thanks!
OUTPUT: 4.49

---

# System: CEM cells HIV-1 protection, formazan growth assay
# procedure.text: NCI AIDS Antiviral Assay;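 active = compounds giving half or more protection of infected cells from virus-caused growth loss, again on retest; inactive = the rest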
Give your call using only these classes: label 1 = active, label 0 = inactive

Examples with answers:
> print(dat)
                                   compound                            assayed.system  assigned.category
1  O=C(OCc1ccccc1)N1N=NC2C3CC(OCc4ccccc4)(OCc4ccccc4)C(O3)C21 (stereo not drawn)  CEM cells HIV-1 protection, formazan growth assay            label 0
2  CC(=O)O[C@@H]1C(=O)O[C@@H]2CO[C@H](c3ccccc3)O[C@H]12  CEM cells HIV-1 protection, formazan growth assay            label 0
3              O=c1c2ccccc2c2nccn2c2ccccc12  CEM cells HIV-1 protection, formazan growth assay            label 1
4    COc1ccc(CN2COc3c(cc(C)c4cccnc34)C2)cc1  CEM cells HIV-1 protection, formazan growth assay            label 0
5                  COc1ccc(CCc2nccn2C)cc1OC  CEM cells HIV-1 protection, formazan growth assay            label 0
6  COc1ccc(-c2c(C(=O)Nc3ccccc3)c(-c3ccccc3)n(C3OC(CO)C(O)C(O)C3O)c(=S)c2C#N)cc1 (stereo not drawn)  CEM cells HIV-1 protection, formazan growth assay            label 0
7  N#CC1C(=O)N(c2ccccc2)NC12OC(=O)c1ccncc12 (stereo not drawn)  CEM cells HIV-1 protection, formazan growth assay            label 0
8  Cc1ccc(/C(C#N)=C/c2cccc([N+](=O)[O-])c2)cc1  CEM cells HIV-1 protection, formazan growth assay            label 0

INPUT: So what was the verdict on c1csc(-c2cscc2-c2ccsc2)c1 in this test?
OUTPUT: label 0

INPUT: What did the test return for CC(NC(=O)C(N)CC(=O)O)NC(=O)N1CCCC1 (stereo not drawn) ?
OUTPUT: label 0

INPUT: In this assay, the call recorded for CC(=O)C1C(=O)C(=O)N(c2cccc(C)c2C)C1=O (stereo not drawn) was what?
OUTPUT: label 0

INPUT: Identify the outcome logged in this assay for the compound shown: S=C1NC2(CCCCCC2)NN1c1ccccc1
OUTPUT: label 0

INPUT: Call for entry O=C(O)c1ccc2nc(-c3ccccn3)c(-c3ccccn3)nc2c1 :
OUTPUT: label 0

INPUT: Which result was noted for this compound in the test: CC1C2CC(C(S(=O)(=O)O)C2=O)C1(C)C (stereo not drawn)
OUTPUT: label 0

INPUT: Please indicate how the test categorized COc1ccc(C(=O)C(CN2CCOCC2)CN2CCOCC2)cc1 .
OUTPUT: label 0

INPUT: For CC(=O)C1(O)Cc2c(O)c3c(c(O)c2C(OC2CC(N)C(O)C(C)O2)C1)C(=O)c1ccccc1C3=O (stereo not drawn) , what call appears in the results of this test?
OUTPUT: label 0

INPUT: What outcome does the record of this test show for Cc1ncc(CO)c(CO)c1S ?
OUTPUT: label 0

INPUT: Hey, what did the test say about CCOC(CN(C)C(=O)OCC(Cl)(Cl)Cl)OCC ?
OUTPUT: label 0

INPUT: Check the results log: what was the call for COC(=O)n1nnc2ncccc21 ?
OUTPUT: label 0

INPUT: Dear colleague, could you share the recorded outcome for CCOC(=O)c1nc2cc(C(F)(F)F)ccc2nc1Nc1ccc(C(=O)OC)s1 when you have a moment?
OUTPUT: label 0

INPUT: Given CC(C)(C)C[PH+](CC[PH+](CC(C)(C)C)CC(C)(C)C)CC(C)(C)C.[C-]#[O+].[C-]#[O+].[C-]#[O+].[C-]#[O+].[Mo] , state the outcome it received in this test.
OUTPUT: label 0

INPUT: How did this test come out for NC(CSCCCS(=O)(=O)O)C(=O)O (stereo not drawn) ?
OUTPUT: label 0

INPUT: Field: outcome | Entry: Nc1ccc2cc3[nH]c4cc(N)ccc4c3nc2c1
OUTPUT: label 0

---

# Test system: CEM cells HIV-1 protection, formazan growth assay
# procedure.text: NCI AIDS Antiviral Assay
# condition: measured here: growth of uninfected CEM cells
experimental.endpoint: IC50

These recorded examples may help you get a feel for the data.
smiles.record	IC50
CCOC(=O)c1s/c(=N\Nc2nc3ccccc3cc2C2OCCO2)n(Cc2ccccc2)c1C	> 5.5 µM
CCOC(=O)CC(=O)ON(C)C(=O)Cc1ccccc1	> 251 µM
CC(C)CCC[C@@H](C)[C@H]1CC[C@H]2[C@@H]3CC[C@H]4C[C@@H](CC/C=C(/c5ccc(OCc6ccccc6B(O)O)c(C(=O)O)c5)c5cc(Cl)c(OCc6ccccc6B(O)O)c(C(=O)O)c5)CC[C@]4(C)[C@H]3CC[C@]12C	> 200 µM

Pending molecule:
INPUT: Answer with reported IC50 of Nc1nc(SCC(=O)c2ccccc2)nc2nc3c(c(-c4ccccc4)c12)CCCC3
OUTPUT: 66.1 µM

---

Collected IC50 values appear next to each entry.
# Test system: CEM cells HIV-1 protection, formazan growth assay
# procedure.text: NCI AIDS Antiviral Assay
# condition: measured here: growth of uninfected CEM cells
Value expressed in µM; do not type the unit.

> print(dat)
                                   molecule  unit.text  numeric.value
1  O=C(O)c1cc(-c2ccccc2)c(-c2ccccc2)cc1C(c1ccccc1)c1ccccc1         µM           28.2

INPUT: Provide only the value of recorded IC50 for C#C[C@]1(O)CC[C@H]2[C@@H]3CCC4=C/C(=N/OCCN(C)C)CC[C@]4(C)[C@H]3CC[C@@]21C
OUTPUT: 4.79

INPUT: Give me measured IC50, please, for this molecule: CCCCCCCCCCCCCCCCP(=O)(O)OCC(N)C(=O)O (configuration not stated)
OUTPUT: 95.5

INPUT: # return recorded IC50 for input CCCCN(C)C(=O)C1=C(C)NC(C)=C(C(=O)N(C)CCCC)C1
OUTPUT: 102

INPUT: Provide measured IC50 value, entry: [CH3][Sn]1([CH3])[O]C(=O)CCN=Cc2c(ccc3ccccc23)[O][Sn]([CH3])([CH3])[O]C(=O)CCN=Cc2c(ccc3ccccc23)[O]1
OUTPUT: 20

INPUT: Could you please provide reported IC50 for CCOC(=O)C(NC(=O)CC(C)C)(Nc1ccc(C(F)(F)F)cc1)C(F)(F)F (configuration not stated) ? Thanks!
OUTPUT: 56.2

INPUT: Quick one: give measured IC50 for C#CCCCCC#Cc1ccccc1C(=O)OC
OUTPUT: 28.8

---

# Tested on: CEM cells HIV-1 protection, formazan growth assay
# procedure.text: NCI AIDS Antiviral Assay
# condition: measured here: growth of uninfected CEM cells
Reported IC50 values for the following molecules.
Report the figure in µM without appending any unit label.

INPUT: Give IC50 for the following molecule: O=C(Nc1ccn(C2CC(I)C(COC(c3ccccc3)(c3ccccc3)c3ccccc3)O2)c(=O)n1)c1ccccc1 (stereo unspecified)
OUTPUT: 7.59
